// data source = the supplement of paper PMC6897291

For each of the compounds below, state its growth inhibition by drug plus 177Lu-lilotomab satetraxetan.
System: RIVA
test-summary: growth inhibition by drug plus 177Lu-lilotomab satetraxetan (1 - RLU/untreated control) (fraction); higher = stronger inhibition
test-conditions: 10 nM; time (day): 5; 177Lu-lilotomab satetraxetan 0.5 ug/ml

Worked cases, growth inhibition by drug plus 177Lu-lilotomab satetraxetan given:
compound	system-name	experimental-result
C[C@]12CCC(=O)C(O)=C1CC[C@@H]1[C@@H]2CC[C@]2(C)C(=O)CC[C@@H]12	RIVA	0.553
CN(C)CCN(C)CCc1ccc(Cl)c(Cl)c1	RIVA	0.459
C=C1C[C@@H]2[C@H](CC[C@]3(C)C(=O)CC[C@@H]23)[C@@]2(C)C=CC(=O)C=C12	RIVA	0.647

Give measured growth inhibition by drug plus 177Lu-lilotomab satetraxetan for every item shown.
1. Cc1cc2c(C(C)C)c(O)c(O)c(C=O)c2c(O)c1-c1c(C)cc2c(C(C)C)c(O)c(O)c(C=O)c2c1O
2. N.N.[Cl][Pt][Cl] [Cisplatin]
3. Cc1ccccc1-n1c(Cn2cnc3c(N)ncnc32)nc2cccc(C)c2c1=O
4. CC[C@@H](C(=O)[C@@H](C)[C@@H](O)[C@H](C)[C@@H]1O[C@@H]([C@@H](CC)C(=O)O)CC[C@@H]1C)[C@H]1O[C@]2(C=C[C@@H](O)[C@]3(CC[C@@](C)([C@H]4CC[C@](O)(CC)[C@H](C)O4)O3)O2)[C@H](C)C[C@@H]1C

Reply:
1. 0.501
2. 0.592
3. 0.546
4. 0.591

----------
Test system: RIVA
test-summary: growth inhibition by drug alone (1 - RLU/untreated control) (fraction); higher = stronger inhibition
test-conditions: 100 nM; time (day): 5; 177Lu-lilotomab satetraxetan 0 ug/ml
Assign growth inhibition by drug alone to each entry below.
One number for each entry.

Before answering, review these 3 worked examples.
compound	system-name	assay-metric	experimental-result
Cn1cc(C2=C(c3cn(C4CCN(Cc5ccccn5)CC4)c4ccccc34)C(=O)NC2=O)c2ccccc21	RIVA	growth inhibition by drug alone	-0.329
N.N.[Cl][Pt][Cl] [Cisplatin]	RIVA	growth inhibition by drug alone	-0.0914
CC1=C2C[C@H]3[C@@H](CC=C4C[C@@H](O)CC[C@@]43C)[C@@H]2CC[C@]12O[C@@H]1C[C@H](C)CN[C@H]1[C@H]2C	RIVA	growth inhibition by drug alone	-0.0321

# evaluate next
Query: Query (compound): C=C1C[C@@H]2[C@H](CC[C@]3(C)C(=O)CC[C@@H]23)[C@@]2(C)C=CC(=O)C=C12 ; field requested: growth inhibition by drug alone
Reply: -0.21

----------
Tested on: RIVA
test-summary: growth inhibition by drug plus 177Lu-lilotomab satetraxetan (1 - RLU/untreated control) (fraction); higher = stronger inhibition
test-conditions: 10 nM; time (day): 4; 177Lu-lilotomab satetraxetan 0.5 ug/ml
assay-metric: growth inhibition by drug plus 177Lu-lilotomab satetraxetan
One number for each entry.

// worked examples, growth inhibition by drug plus 177Lu-lilotomab satetraxetan included
compound	experimental-result
CC(C)[C@]12O[C@H]1[C@@H]1O[C@]13[C@]1(O[C@H]1C[C@H]1C4=C(CC[C@@]13C)C(=O)OC4)[C@@H]2O [Triptolide]	0.885
O=C(Oc1ccc([N+](=O)[O-])cc1)N1CCC(C(O)(c2ccc3c(c2)OCO3)c2ccc3c(c2)OCO3)CC1	0.498
CCC1(c2ccc(N)cc2)CCC(=O)NC1=O (stereo not drawn) [Aminoglutethimide (Cytadren)]	0.523
C[C@]12CCC(=O)C(O)=C1CC[C@@H]1[C@@H]2CC[C@]2(C)C(=O)CC[C@@H]12	0.532
N.N.[Cl][Pt][Cl] [Cisplatin]	0.565

For every record below, what is its growth inhibition by drug plus 177Lu-lilotomab satetraxetan?
1. N[C@@H](Cc1ccc(N(CCCl)CCCl)cc1)C(=O)O
2. C=C1C[C@@H]2[C@H](CC[C@]3(C)C(=O)CC[C@@H]23)[C@@]2(C)C=CC(=O)C=C12
3. Cn1cc(C2=C(c3cn(C4CCN(Cc5ccccn5)CC4)c4ccccc34)C(=O)NC2=O)c2ccccc21

Reply:
[0.502, 0.639, 0.546]
